Recorded normalized growth by entry
# protocolText: chemical genetic growth profiling, strain panel (AID 1159580);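 note: tested at 20 µM; growth read once vehicle control cultures reached saturation at 30 °C; 1 = growth at the plate median or of vehicle wells; lower values mean less growth of the strain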
# conditionsUsed: S. cerevisiae deletion strains, growth OD, locus YDL074C, strain BRE1, stronger effect = lower value
Hit rate of the full screen: of about 5,500 compounds, about 2,000 (36%) were called active. About 18% were inconclusive and are not listed. The list shows a part of the results.

Example entries and their recorded answers appear below.
{"compound": "COc1cc(-c2coc3cc(OCc4ccccc4)c(OC)c(O)c3c2=O)cc(OCc2ccccc2)c1OC", "testValue": "1.02 (inactive)"}
{"compound": "CCCCOC(=O)c1ccccc1C(=O)OCCCC", "testValue": "0.984 (inactive)"}
{"compound": "CCCCOC(=O)c1ccccc1C(=O)OCc1ccccc1", "testValue": "0.971 (inactive)"}
{"compound": "CC1(C)OC(=O)C=CC2(C)C1CC(O)C1(C)C2CCC2(C)C(c3ccoc3)OC(=O)C3OC321 (stereo not drawn)", "testValue": "1.02 (inactive)"}
{"compound": "O=C(O)CN(CC(=O)O)Cc1cc2c(-c3ccccc3C(=O)O)c3cc(CN(CC(=O)O)CC(=O)O)c(=O)cc-3oc2cc1O", "testValue": "0.991 (inactive)"}
{"compound": "CC(=O)N[C@@H](CS)C(=O)O", "testValue": "1.01 (inactive)"}

Q. For the compound shown here, CC1OC1P(=O)(O)O (stereo not drawn) , give the reported normalized growth.
A. 1.04 (inactive)

Q. Proceed to CC(C)NCC(O)c1cc(O)cc(O)c1 (stereo not drawn)
A. 1.01 (inactive)

Q. Proceed to Cc1ccc(C)c(OCCCC(C)(C)C(=O)O)c1
A. 0.858 (inactive)

Q. Proceed to CCCCCCOc1ccccc1C(N)=O
A. 0.443 (active)
